# EXPERIMENT SUMMARY: Acute toxicity measured as median lethal dose in mice; Range is 60-80
# Format: organism-based
# CONDITIONS: mouse, in vivo

MOL	UOM	LD50
CCc1cccc(C(C)C)c1O	mg/kg	60

----------
# Species: Mus musculus
# EXPERIMENT SUMMARY: Hypnotic activity was measured as dose which causes loss of righting reflex for a minimum period of 30s in 50% of mice
# Assay type: functional
Measured HD50 of individual entries

COMPOUND	HD50, mg/kg
CCCCc1c(C)ccc(C(C)C)c1O	50
CCCCC(C)c1cccc(CCC)c1O (stereo not drawn)	50
Cc1ccc(C(C)C)c(O)c1	30
CCC(C)c1cc(C)cc(C(C)CC)c1O (stereo not drawn)	30
CCc1cc(C(C)C)c(O)c(C(C)C)c1	20
Cc1c(C(C)C)ccc(C(C)C)c1O	20
CCCCc1cccc(C(C)C)c1O	20
Cc1ccc(O)c(C(C)(C)C)c1	30
